Biological target: hemagglutinin (HA) of influenza virus B/Florida/04/06 (Yamagata) (influenza B virus)
Assay: cell-based or functional assay
This listing pairs binders with measured neutralization titer.
Give your result in nM as a bare value.

# example entries with known answers
# BINDER, VALUE_UNITS, neutralization titer
measured = [
    ("MD1223 (bispecific antibody) EVQLVESGGGLVQPGGSLKLSCAASGFTFSTSWMYWLRQAPGKGLEWVSVINTDGGTYYADSVKDRFTISRDNAKDTLYLQMSSLKSEDTAVYYCAKDWGGPEPTRGQGTQVTVSSAAAGGGGSGGGGSGGGGSGGGGSGGGGSGGGGSGGGGSEVQLVESGGGLVQPGGSLRLSCAATGFTLENKAIGWFRQTPGSEREGVLCISKSGSWTYYTDSMRGRFTISRDNAENTVYLQMDSLKPEDTAVYYCATTTAGGGLCWDGTTFSRLASSWGQGTQVTVSS", "nM", 2.3),
    ("MD1221 (VHH) EVQLVESGGGLVQPGGSLRLSCAATGFTLENKAIGWFRQTPGSEREGVLCISKSGSWTYYTDSMRGRFTISRDNAENTVYLQMDSLKPEDTAVYYCATTTAGGGLCWDGTTFSRLASSWGQGTQVTVSSAAAGGGGSGGGGSGGGGSGGGGSGGGGSGGGGSGGGGSEVQLVESGGGLVQPGGSLRLSCAATGFTLENKAIGWFRQTPGSEREGVLCISKSGSWTYYTDSMRGRFTISRDNAENTVYLQMDSLKPEDTAVYYCATTTAGGGLCWDGTTFSRLASSWGQGTQVTVSS", "nM", 76.4),
]

Next up:
Dear colleague, I am looking for the recorded neutralization titer of the following binder: MD1222 (bispecific antibody) EVQLVESGGGLVQPGGSLRLSCAATGFTLENKAIGWFRQTPGSEREGVLCISKSGSWTYYTDSMRGRFTISRDNAENTVYLQMDSLKPEDTAVYYCATTTAGGGLCWDGTTFSRLASSWGQGTQVTVSSAAAGGGGSGGGGSGGGGSGGGGSGGGGSGGGGSGGGGSEVQLVESGGGLVQPGGSLKLSCAASGFTFSTSWMYWLRQAPGKGLEWVSVINTDGGTYYADSVKDRFTISRDNAKDTLYLQMSSLKSEDTAVYYCAKDWGGPEPTRGQGTQVTVSS 2.1

Where do the numbers come from? From patent US20190359693A1.
